All figures here come from PubChem BioAssay AID1996.

Conditions: buffer; pH 7.4; 200.0 µM

{"columns": ["COMPOUND", "MODIFIER", "solubility kinetic / mg/mL"],
 "data": [
  ["Cc1ccc(N2C(=O)Nc3ccccc3S2(=O)=O)cc1Cl", "=", 0.0008],
  ["O=C(Nc1ccc2c(c1)OCO2)C1CC(=O)N(c2ccccc2)C1 (stereo unspecified)", "=", 0.0033],
  ["O=C(Nc1ccncc1)Nc1ccc(F)cc1", "=", 0.0299],
  ["CCOc1ccc(S(=O)(=O)N(C)C2CCCCC2)cc1", "=", 0.0181],
  ["Cc1cccc(Nc2nc(-c3ccc(F)cc3)cs2)n1", "<", 0.0002],
  ["CN(C)C(CNC(=O)c1ccccc1C(F)(F)F)c1ccco1 (stereo unspecified)", ">", 0.0489]
]}
